Please go through the items and note down their protein stability index.
B1: ELF3 (parent)
chain: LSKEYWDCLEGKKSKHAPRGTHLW

# Variants of: B1
# PROTOCOL NOTES: protein stability index of a GFP-peptide fusion (GPS, HEK-293T) (PSI 1-6); higher = more stable;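 also: lentivirally expressed fusions sorted by FACS into six bins by GFP to DsRed ratio, PSI derived from sequencing read proportions per bin multiplied by bin number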
# MEASUREMENT CONDITIONS: c terminus: a fixed tail appended

Would you please look over these solved cases?
- MUTANT CODE: "H16E"
  protein stability index: 3.14
- MUTANT CODE: "D7L"
  protein stability index: 2.26
- MUTANT CODE: "K12T"
  protein stability index: 2.43
- MUTANT CODE: "C8F"
  protein stability index: 2.81
- MUTANT CODE: "H16F"
  protein stability index: 2.64

For every item in the list below, what is its measured protein stability index?
1. G11L
2. R19Y
3. K12I
4. G11R
5. G11H
6. L9G
7. L1H
8. H22N

output:
2.71
2.18
2.26
3.26
2.17
3.65
2.16
3.23

State the recorded protein stability index for every item in the following list.
1. W6L
2. R19F
3. A17M
4. G11T
5. W6F
6. A17P
7. Y5C
8. E10I

output:
[3.08, 2.25, 3.06, 2.98, 3, 3.21, 2.91, 1.61]

# variant K13F ; its protein stability index = 2.74
